tested on: HT-1080.hFAP and HT-1080.wt xenografts; test: Quantitative biodistribution in HT-1080.hFAP and HT-1080.wt xenografted mice; format: in vivo; conditions: 4 h p.i., HT-1080.hFAP and HT-1080.wt xenografts
Catalogue of molecules with associated Biodistribution Spleen

molecule	Biodistribution Spleen (% IA/g)
CN(C(=O)CCC(=O)N1CCN(C(=O)CC[C@H](C(=O)O)N2CCN3CCN(CC2)CC(=O)[O][61Cu][O]C(=O)C3)CC1)c1ccc2nccc(C(=O)NCC(=O)N3CC(F)(F)C[C@H]3C#N)c2c1 [[^61Cu]Cu-NODAGA-F4]	0.2
N#C[C@@H]1CC(F)(F)CN1C(=O)CNC(=O)c1ccnc2ccc(NC(=O)CCC(=O)N3CCN(C(=O)CC[C@H](C(=O)O)N4CCN5CCN(CC4)CC(=O)[O][61Cu][O]C(=O)C5)CC3)cc12 [[^61Cu]Cu-NODAGA-F3]	0.3
N#C[C@@H]1CC(F)(F)CN1C(=O)CNC(=O)c1ccnc2ccc(NC(=O)CCC(=O)NCCNC(=O)CC[C@H](C(=O)O)N3CCN4CCN(CC3)CC(=O)[O][61Cu][O]C(=O)C4)cc12 [[^61Cu]Cu-NODAGA-F1]	0.5
CN(C(=O)CCC(=O)NCCNC(=O)CC[C@H](C(=O)O)N1CCN2CCN(CC1)CC(=O)[O][61Cu][O]C(=O)C2)c1ccc2nccc(C(=O)NCC(=O)N3CC(F)(F)C[C@H]3C#N)c2c1 [[^61Cu]Cu-NODAGA-F2]	0.2
CN(CCCN1CCN(C(=O)CCC(C(=O)O)N2CCN3CCN(CC2)CC(=O)[O][61Cu][O]C(=O)C3)CC1)c1ccc2nccc(C(=O)NCC(=O)N3CC(F)(F)C[C@H]3C#N)c2c1 (some centres unmarked) [[^61Cu]Cu-NODAGA-FAPI-46]	0.5

Data credit: patent US20240173440A1
